Tested on: SF-268 CNS
Experiment: NCI-60 one-dose screen, 48 h (100 = growth as untreated, 0 = no growth, -100 = all killed)
Details: 10 µM unless noted
About 83,000 compounds went through this panel and 20% of them were active in at least one assay; those are over-represented in the sample as a whole.
Returns: string. Value is Fulfilled if measured growth is below 50%, and Not fulfilled if it is greater than or equal to it.

[Q] Decide: growth of O=CN1N=C(c2cccc(Nc3ccnc4cc(Cl)ccc34)c2)CC1c1ccc(Cl)cc1 (stereo not drawn) strictly below 50%?
[A] Fulfilled

[Q] Decide: growth of Cc1ccc(OCCOCCOCCOc2ccc(C)n(O)c2=S)c(=S)n1O strictly below 50%?
[A] Fulfilled

[Q] Decide: growth of COC(=O)[C@]1(C)CCC[C@]2(C)[C@H]3C[C@@H]4[C@H]5[C@@H]6CC/C(=N\OCC/C(N)=N/O)[C@H]5[C@@]3(CC[C@H]21)CC4(C(C)C)O6 strictly below 50%?
[A] Not fulfilled

[Q] Decide: growth of Cc1ccc2c(/C=C/C(=O)c3cc(CN4CCOCC4)c(O)c4nc(C)ccc34)cc(CN3CCOCC3)c(O)c2n1 strictly below 50%?
[A] Fulfilled

[Q] Decide: growth of c1ccc(-c2nc3ccccc3[nH]2)c(OCCCCCOc2ccccc2-c2nc3ccccc3[nH]2)c1 strictly below 50%?
[A] Not fulfilled

[Q] Decide: growth of COC(=O)/C(CCC=C(C)C)=C1\[C@@H](OC(C)=O)C[C@@]2(C)[C@H]1C/C(=N/O)[C@H]1[C@@]3(C)CC/C(=N\O)[C@@H](C)[C@@H]3CC[C@@]12C strictly below 50%?
[A] Not fulfilled

[Q] Decide: growth of CCOC(=O)CC1CSC(N/N=C/c2ccc(F)c(Br)c2)=N1 (stereo not drawn) strictly below 50%?
[A] Not fulfilled

These measurements were taken from PubChem BioAssay (NCI).
